Recorded TGI values for a group of compounds are listed next.
# Test system: SF-268 CNS
# TEST_DETAILS: NCI tumour cell line growth inhibition, 48 h

Below, each entry is followed by its recorded TGI result.
Cn1c(COC(=O)NCCn2ccnc2)nc2c(N3CCOCC3)nc(-c3ccccc3)nc21 | 2.66 µM
O=C(CC1=Nc2nnc(CCCCCCCc3nnc4n3C(=O)C(CC(=O)c3ccc5ccccc5c3)=N4)n2C1=O)c1ccc2ccccc2c1 | > 100 µM
Cc1n[nH]c2ccccc2c1=O | > 100 µM
O=c1c(Cc2ccc3c(c2)OCO3)nnc2sc(-c3cc(F)c(Cl)cc3Cl)nn12 | > 100 µM
O=P1(N(CCCl)CCCl)Oc2ccc(Cl)cc2C(C(Cl)(Cl)Cl)c2cc(Cl)ccc2O1 (stereo unspecified) | > 100 µM

Moving on to another compound below.
Lookup: Provide measured TGI value, entry: "CCOc1c(Br)cc(Br)cc1C=C(C#N)C#N"
Found: > 10 µM

====

# System: SN12C renal
# TEST_DETAILS: NCI tumour cell line growth inhibition, 48 h
OUTCOME_MEASURE: TGI

Below, each entry is followed by its recorded TGI result.
COC(=O)c1sc(=O)sc1SCc1cccc(CSc2sc(=O)sc2C(=O)OC)c1 | > 100 µM
CSC(SC)=C(C(=O)c1ccc(Cl)cc1)n1c(=O)sc2cc(Br)ccc21 | > 100 µM
CC(=O)CC1(CBr)Nc2ccc([N+](=O)[O-])cc2NC1=O (stereo not given) | > 100 µM
O=S(=O)(Nc1nc2ccccc2nc1N1CCCCCC1)c1ccccc1 | > 100 µM
Cc1cccc(C)c1NC(=O)C(=O)Cc1nc2ccccc2s1 | > 100 µM

Lookup: Provide measured TGI value, entry: CC1=NN(C(=O)CC(=O)Nc2cccc(C)c2)C(=O)C1N=Nc1ccc(S(=O)(=O)CCOS(=O)(=O)O)cc1 (stereo not given)
Found: 5.51 µM

Lookup: Provide measured TGI value, entry: "CC(=O)n1[nH]c(=O)n(-c2ccc(Cl)cc2)c1=O"
Found: > 100 µM

Lookup: Provide measured TGI value, entry: CCCCCCCC(=O)OCC/C=C/C1OC1C1OC(=O)/C=C\C=C\C(=O)N(C(C)=O)C(=O)/C=C(/C)CCC2OC2C1OC(=O)NC(C)=O (stereo not given)
Found: > 25 µM

====

# System: RPMI-8226 leukemia
# TEST_DETAILS: NCI tumour cell line growth inhibition, 48 h
Recorded TGI values for a group of molecules are listed next.

Below, each entry is followed by its recorded TGI result.
O=C1C(=O)c2c(nc3ccc(C(F)(F)F)cn23)-c2ccccc21 | 0.53 µM
CC1CCC2C(C)C(=O)OC2C2(C)C(=O)C=CC12 (stereo not given) | > 10 µM
Cn1c(I)c(C#C[Si](C)(C)C)c(=O)n(C(=O)c2ccccc2)c1=O | > 20.4 µM
Oc1ccc(C(O)C2CCCCN2)cc1O (stereo not given) | > 100 µM
N[C@@H](CCC(=O)NC(Cc1ccccc1)C(=O)NCP(=O)(O)O)C(=O)O (stereo not given in full) | > 100 µM
CCCCCCCC/C=C/CCCCCCCC1=NC(C)(C)CN1C(C)(C)CO | 5.68 µM

Lookup: Provide measured TGI value, entry: COc1cccc2c1C(=O)c1c(O)c3c(c(O)c1C2=O)C[C@@](O)(C(C)=O)CC3OC1CC(OC2CC(N)C(O)C(C)O2)C(O)C(C)O1 (stereo not given in full)
Found: > 74.5 µM

Lookup: Provide measured TGI value, entry: O=C(c1ccccc1)C1N=NN(Cc2ccccc2[N+](=O)[O-])C1C(=O)c1ccccc1 (stereo not given)
Found: > 100 µM

Lookup: Provide measured TGI value, entry: "C/C(=N/NC(=S)Nc1ccccc1)c1nc2ccc(Cl)cc2[nH]1"
Found: 3.36 µM

Lookup: Provide measured TGI value, entry: "COc1ccc(-c2ccc(OC)c(OC)c2OC)cc1"
Found: > 100 µM
